The entries below pair compounds with pIC50 values for UniProt:O94925, as found in several publications.
pIC50: −log10 of the molar value.

As a guide, the following entries are already answered.
INSERT INTO measurements (chem_smiles, quantity_name, result) VALUES
  ('CC(=O)Nc1ccc([C@@H]2CCC[C@H](c3ccc(NC(C)=O)nn3)C2)nn1', 'pIC50', '> 7.00'),
  ('COc1cccc(CC(=O)Nc2nnc([C@@H]3CC[C@@H](c4nnc(NC(=O)Cc5cccc(OC)c5)s4)C3)s2)c1', 'pIC50', '> 7.00'),
  ('CC(C)OC(=O)Nc1nnc(CCS(=O)(=O)CCc2nnc(NC(=O)OC(C)C)s2)s1', 'pIC50', '6.00 to 6.30'),
  ('O=C(CCc1cccnc1)Nc1nnc(CCS(=O)(=O)CCc2nnc(NC(=O)CCc3cccnc3)s2)s1', 'pIC50', '6.30 to 7.00'),
  ('O=C(Cc1cccc(Br)n1)Nc1nnc([C@H]2CCC[C@H](c3nnc(NC(=O)Cc4cccc(Br)n4)s3)C2)s1', 'pIC50', '> 7.00'),
  ('CC(=O)Nc1cccc(CC(=O)Nc2nnc([C@H]3CCC[C@H](c4nnc(NC(=O)Cc5cccc(NC(C)=O)c5)s4)C3)s2)c1', 'pIC50', '> 7.00');

Now for the compound whose pIC50 we want.
Annotate the compound COc1cccc(CC(=O)Nc2nnc([C@@H]3CC[C@H](c4nnc(NC(=O)Cc5cccc(OC)c5)s4)C3)s2)c1 with its measured pIC50.
6.30 to 7.00
